The measured values listed here are drawn from ChEMBL document CHEMBL1201862.

- Test system: MCF7
- ASSAY_COMMENT: NCI tumour cell line growth inhibition, 48 h
Activity calls are given as the source filed them. Rule as the data show it: active = GI50 up to about 1.1 µM and inactive = higher.
Select the matching outcome among active, inactive

{"columns": ["COMPOUND", "LABEL_VALUE"],
 "data": [
  ["Oc1ccc(Cl)cc1CN1CCN(Cc2cc(Cl)ccc2O)C1", "inactive"],
  ["COc1cc(/C=N\\N(C)C)cc(/C=N/N(C)C)c1O", "inactive"],
  ["Clc1nc2c(-c3cccs3)ncnc2n1Cc1ccccc1", "inactive"],
  ["COc1cc2c(cc1OCCCOc1cc3c(cc1OC)C(=O)N1CCC[C@H]1C(=O)N3)N=C[C@@H]1CCCN1C2=O", "inactive"],
  ["C[C@]12CC[C@@H]3c4cc(C=O)c(OCc5ccccc5)cc4CC[C@H]3[C@@H]1CCC2OCc1ccccc1 (stereo not given in full)", "inactive"]
]}

Outcome? CC(C)(C)C1=C(Br)C(OC(=O)C(F)(F)F)(C(C)(C)C)OP1(=O)c1ccccc1 (stereo not given) inactive

And what about the compound COC(=O)[C@H]1[C@@H](O)[C@@]2(O)c3c(OC)cc(OC)cc3O[C@@]2(c2ccc3c(c2)OCO3)[C@@H]1c1ccccc1 ? active

And what about the compound Nc1nc(=O)n(C2OC(CO)C(O)C2O)cc1F (stereo not given) ? inactive

And what about the compound CSc1ncc2c(C#N)c3[nH]c4ccccc4n3c(=O)c2n1 ? inactive

And what about the compound COc1ccc([N+](=O)[O-])c2c(NCCCN(C)C)c3ccccc3nc12 ? active
